Measurement Description: an = ratio of the nth substance listed
Particulars: 328 K; 100 kPa; Liquid; Frequency=5 MHz; Single path-length method; a2 = 2
Numbers after ± are expanded uncertainties.
Reported Metric: speed of sound

Task item: Any idea what its speed of sound is? The compound is C[N+](C)(C)CCO.[Cl-] [choline chloride] + OCC(O)CO
Reply: 1910 ± 38 m/s

Task item: What value of measured speed of sound is listed for CCCCCCCC[N+](C)(CCCCCCCC)CCCCCCCC.[Br-] [methyltrioctylammonium bromide] + CCCCCCCCCC(=O)O ?
Reply: 1297 ± 26 m/s

Task item: Query: speed of sound; subject: CCCCCCCC[N+](CCCCCCCC)(CCCCCCCC)CCCCCCCC.[Br-] [tetraoctylammonium bromide] + CCCCCCCCCC(=O)O
Reply: 1301 ± 26 m/s

Task item: Give its speed of sound value. Item: C[N+](C)(C)CCO.[Cl-] [choline chloride] + OCCO
Reply: 1813 ± 36 m/s
